Answer each item with its documented log10 IC50.
# Tested Target: PD-1/PD-L1 (Homo sapiens, UniProt Q9NZQ7)
# Construct: made in house; host or cells: HEK293T
# Sequence (Q9NZQ7 with tags, fused parts or gaps): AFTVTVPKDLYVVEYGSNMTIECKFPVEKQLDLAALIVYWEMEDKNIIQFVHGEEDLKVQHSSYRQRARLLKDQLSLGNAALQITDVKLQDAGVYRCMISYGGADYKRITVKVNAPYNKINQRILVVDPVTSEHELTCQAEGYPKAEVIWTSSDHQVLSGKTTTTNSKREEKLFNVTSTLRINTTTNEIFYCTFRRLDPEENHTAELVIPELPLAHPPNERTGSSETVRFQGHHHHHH
# Experiment Description: PD-1/PD-L1 Homogenous Time-Resolved Fluorescence (HTRF) binding assay
# Measurement Parameters: PD-L1-His 10 nM, PD-1-Ig 20 nM; numeric IC50; read-out: Range or IC50
Please note: log10 values; quantity IC50; unit nM.

# count of solved cases: 3
[
  {
    "Compound": "CCNC(=O)c1cccc(-c2cccc(COc3cc(OCc4cncc(C#N)c4)c(CNC(C)(CO)CO)cc3Cl)c2C)c1C [Example 4010]",
    "log10 IC50": 1.04
  },
  {
    "Compound": "Cc1c(COc2cc(OCc3cncc(C#N)c3)c(C=O)cc2Cl)cccc1-c1cccc(OCCCN2CC[C@@H](O)C2)c1Cl [Example 1509]",
    "log10 IC50": 1.08
  },
  {
    "Compound": "Cc1c(COc2cc(OCc3cncc(C#N)c3)c(CN[C@@H](CO)C(=O)O)cc2Cl)cccc1-c1ccc2c(c1C)OCCO2 [Example 3043]",
    "log10 IC50": 0.48
  }
]

Consider the following items and state reported log10 IC50 for each.
1. Cc1c(COc2cc(OCc3cncc(C#N)c3)c(CN3CCCC[C@H]3C(=O)O)cc2Cl)cccc1-c1cccc(OCCCNC[C@H](O)CO)c1Cl [Example 2007]
2. CCOC(=O)C1(CO)CCN(CCCOc2cccc(-c3cccc(COc4cc(OCc5cncc(C#N)c5)c(CN5CCC(CO)(C(=O)OCC)C5)cc4Cl)c3C)c2Cl)C1 (centres unmarked) [Example 1102]

1: -0.06; 2: 0.45

* * *

# Tested Target: PD-1/PD-L1 (Homo sapiens, UniProt Q9NZQ7)
# Construct: made in house; host or cells: HEK293T
# Experiment Description: PD-1/PD-L1 Homogenous Time-Resolved Fluorescence (HTRF) binding assay
# Measurement Parameters: PD-L1-His 10 nM, PD-1-Ig 20 nM; value given as range class; read-out: Range or IC50
Quantity Measured: IC50

Please review the entries below; each comes with its answer.
[
  {
    "Compound": "COC(=O)C1(O)CCN(CCCOc2cccc(-c3cccc(COc4cc(OCc5cncc(C#N)c5)c(CN[C@H](CO)C(=O)O)cc4Cl)c3C)c2C)CC1",
    "Quantity Measured": "IC50",
    "Assay Value": "0.21 to 10 nM"
  },
  {
    "Compound": "Cc1c(COc2cc(OCc3cncc(C#N)c3)c(CN3CCCC[C@H]3C(=O)O)cc2Cl)cccc1-c1cccc(OCCCN[C@@H](Cc2ccncc2)C(=O)O)c1C",
    "Quantity Measured": "IC50",
    "Assay Value": "10 to 100 nM"
  }
]

Please look at the items below and tell me IC50 for each one, in order.
1. Cc1c(COc2cc(OCc3cncc(C#N)c3)c(CN3CCCC[C@H]3C(=O)O)cc2Cl)cccc1-c1cccc(OCCCN(CCO)Cc2ccccc2)c1C
2. Cc1c(COc2cc(OCc3cncc(C#N)c3)c(CN[C@@](C)(CO)C(=O)O)cc2Cl)cccc1-c1cccc(OCCCN2CCC(O)C2)c1C (stereo in doubt)
3. Cc1c(COc2cc(OCc3cncc(C#N)c3)c(CNC3(CO)CC3)cc2Cl)cccc1-c1cccc(OCCCN2CC[C@@H](O)C2)c1Cl
4. COC(=O)C1CN(CCCOc2cccc(-c3cccc(COc4cc(OCc5cncc(S(C)(=O)=O)c5)c(CN5CCCC[C@H]5C(=O)O)cc4Cl)c3C)c2C)CC1O (stereo partly drawn)
5. CN(C)CCOc1cc(OCc2cccc(-c3cccc(OCCCN4CC[C@@H](O)C4)c3Cl)c2Cl)c(Cl)cc1CNC(C)(CO)CO

0.21 to 10 nM
0.21 to 10 nM
0.21 to 10 nM
0.21 to 10 nM
0.21 to 10 nM

Report IC50 for every entry below.
1. Cc1c(COCCN2CC[C@@H](O)C2)cccc1-c1cccc(COc2cc(OCc3cncc(C#N)c3)c(CNC(CO)CO)cc2Cl)c1C
2. Cc1c(COc2cc(OCc3cncc(C#N)c3)c(CN3C[C@H](O)C[C@H]3C(=O)O)cc2Cl)cccc1-c1cccc(C(=O)N(C)C)c1C
3. CNC(=O)c1cccc(-c2cccc(COc3cc(OCc4cncc(C#N)c4)c(CN4C[C@@H](O)C[C@H]4C(=O)O)cc3Cl)c2C)c1C
4. Cc1c(COc2cc(OCc3cncc(C#N)c3)c(CNC(CO)CO)cc2Cl)cccc1-c1cccc(OCCCN2CCC[C@H](CO)C2)c1C
5. COC(=O)C1(O)CCN(CCCOc2cccc(-c3cccc(COc4cc(OCc5cncc(S(C)(=O)=O)c5)c(CN[C@H](CO)C(=O)O)cc4Cl)c3C)c2C)C1 (stereo partly drawn)

1: 0.21 to 10 nM; 2: 100 to 2000 nM; 3: 2010 to 10000 nM; 4: 0.21 to 10 nM; 5: 0.21 to 10 nM

* * *

# Tested Target: PD-1/PD-L1 (Homo sapiens)
# Construct: made in house; host or cells: HEK293T
# Experiment Description: PD-1/PD-L1 Homogenous Time-Resolved Fluorescence (HTRF) binding assay
# Measurement Parameters: PD-L1-His 10 nM, PD-1-Ig 20 nM; value given as range class; read-out: Range or IC50
Give measured IC50 for each item. Keep answers brief.

[
  {
    "Molecule": "Cc1c(COc2cc(OCc3cncc(C#N)c3)c(CNCCCN(C)C)cc2Cl)cccc1-c1cccc(OCCCN2CCC(O)C2)c1C (stereo in doubt) [Example 3007]",
    "IC50": "0.21 to 10 nM"
  },
  {
    "Molecule": "Cc1c(OCCCN2CC[C@@H](O)C2)cccc1-c1cccc(COc2cc(OCC(F)F)c(CNC(CO)CO)cc2Cl)c1Cl [Example 2318]",
    "IC50": "0.21 to 10 nM"
  },
  {
    "Molecule": "Cc1c(COc2cc(O)c(CO)cc2Cl)cccc1-c1cccc(OCCCN2CC(N(C)C)C2)c1Cl [Example 2014]",
    "IC50": "10 to 100 nM"
  }
]

Batch request: IC50 per item, same order as input.
1. CC(CO)(CO)NCc1cc(Cl)c(OCc2cccc(-c3cccc(OCCCN4CC[C@@H](O)C4)c3Cl)c2Cl)cc1OCc1cncc(C#N)c1 [Example 2053]
2. CC(=O)N[C@H]1CCN(CCCOc2cccc(-c3cccc(COc4cc(OCc5cncc(C#N)c5)c(CNC(CO)CO)cc4Cl)c3C)c2Cl)C1 [Example 2069]

1. 0.21 to 10 nM
2. 0.21 to 10 nM

# IC50 lookup, item Cc1c(COc2cc(OCc3cncc(C#N)c3)c(CNC(CO)CO)c(C)c2Cl)cccc1-c1cccc(OCCCN2CC[C@@H](O)C2)c1C [Example 4102] 0.21 to 10 nM

* * *

# Tested Target: PD-1/PD-L1 (Homo sapiens)
# Construct: made in house; host or cells: HEK293T
# Experiment Description: PD-1/PD-L1 Homogenous Time-Resolved Fluorescence (HTRF) binding assay
# Measurement Parameters: PD-L1-His 10 nM, PD-1-Ig 20 nM; value given as range class; read-out: Range or IC50
Quantity Measured: IC50

Worked cases, IC50 given:
[
  {
    "Compound": "Cc1c(COc2cc(OCc3cncc(C#N)c3)c(CN[C@H](CO)C(=O)O)cc2Cl)cccc1-c1cccc(OCCCN2CCC(O)CC2)c1C",
    "IC50": "0.21 to 10 nM"
  },
  {
    "Compound": "COC(=O)C1(O)CCN(CCCOc2cccc(-c3cccc(COc4cc(OCc5cncc(C#N)c5)c(CN5CCC(O)(C(=O)OC)CC5)cc4Cl)c3C)c2C)CC1",
    "IC50": "0.21 to 10 nM"
  }
]

# evaluate next
Form field: reported IC50 of Cc1c(COc2cc(OCc3cncc(C#N)c3)c(CN3CCCC[C@H]3C(=O)O)cc2Cl)cccc1-c1cccc(OCCCN2CCC(O)(CC(=O)O)C2)c1C (mixture of isomers) 0.21 to 10 nM

* * *

# Tested Target: PD-1/PD-L1 (Homo sapiens, UniProt Q9NZQ7)
# Construct: made in house; host or cells: HEK293T
# Experiment Description: PD-1/PD-L1 Homogenous Time-Resolved Fluorescence (HTRF) binding assay
# Measurement Parameters: PD-L1-His 10 nM, PD-1-Ig 20 nM; value given as range class; read-out: Range or IC50
pIC50: −log10 of the molar value.
Please go through the items and note down their pIC50.

Example entries begin here.
[
  {
    "Compound": "Cc1c(COc2cc(OCc3cncc(C#N)c3)c(CNC(C)(CO)CO)cc2Cl)cccc1-c1cccc(OCCC(=O)NC[C@H](O)CO)c1Cl [Example 2118]",
    "pIC50": "8.00 to 9.68"
  },
  {
    "Compound": "Cc1c(COc2cc(OCc3cncc(S(C)(=O)=O)c3)c(CN[C@](C)(CO)C(=O)O)cc2Cl)cccc1-c1cccc(OCCCN2CC(O)C(C(=O)O)C2)c1C (stereo partly drawn) [Example 1075]",
    "pIC50": "8.00 to 9.68"
  }
]

Bench note: what pIC50 did C[C@](CO)(NCc1cc(Cl)c(OCc2cccc(-c3cccc(OCCCN4CCCCC4)c3Cl)c2Cl)cc1OCc1cncc(C#N)c1)C(=O)O [Example 2058] show? 8.00 to 9.68
